So I've got a bunch of compounds here, and I need their IC50 values.
System: HIV-1 isolate 488-0
Test: Anti-HIV efficacy in PBMC, isolate 488-0
Type: cell-based
Details: Human immunodeficiency virus 1, PBMC; isolate 488-0 (pre-treatment); read-out: Drug (IC50)

input: May I ask what IC50 has been recorded for Cc1cn([C@H]2C[C@H](N=[N+]=[N-])[C@@H](CO)O2)c(=O)[nH]c1=O ?
output: 0.3 to 0.6 nM

More entries:
input: Record request: IC50 value, item Nc1ccn([C@@H]2CS[C@H](CO)O2)c(=O)n1
output: 30 to 47 nM

---

Tested on: HIV-1 isolate 5705-72
Experiment: Anti-HIV efficacy in PBMC, isolate 5705-72
Type: cell-based
Conditions: Human immunodeficiency virus 1, PBMC; isolate 5705-72 (post-treatment); read-out: Drug (IC50)
Protocol: The following Tables 2 and 3, set forth below, describe the HIV resistant strains genotypically (Table 2) and phenotypically (Table 3) which were used in the experiments to test activity. Each of the three test compounds were tested for efficacy against the various strains of HIV-1. […] The compounds were also evaluated in a parallel assay for cytotoxicity in uninfected PBM cells.
RESULT_TYPE: pIC50
Give bare numbers, as −log10 of the molar value.

input: Given the molecule Cc1cn([C@H]2C[C@H](N=[N+]=[N-])[C@@H](CO)O2)c(=O)[nH]c1=O [AZT, 3′-Azido-3′-deoxythymidine] , what is its reported pIC50?
output: 7.52

---

System: HIV-1 isolate 488-101
Test: microbe, parasite or virus in culture
Assay type: cell-based
Conditions: Human immunodeficiency virus 1, PBMC; isolate 488-101 (post-treatment); read-out: Drug (IC50)
RESULT_TYPE: IC50 (µM)
Answers are plain numbers, in µM.

input: Given the compound Cc1cn([C@H]2C[C@H](N=[N+]=[N-])[C@@H](CO)O2)c(=O)[nH]c1=O , what is its reported IC50?
output: 0.08

# context switch: different compound, same IC50
input: Fill in the blank: the reported IC50 of Nc1ccn([C@@H]2CS[C@H](CO)O2)c(=O)n1 is ____.
output: 40.6
